- experimental target: TR-β (Homo sapiens)
- Sequence (P10828 whole entry): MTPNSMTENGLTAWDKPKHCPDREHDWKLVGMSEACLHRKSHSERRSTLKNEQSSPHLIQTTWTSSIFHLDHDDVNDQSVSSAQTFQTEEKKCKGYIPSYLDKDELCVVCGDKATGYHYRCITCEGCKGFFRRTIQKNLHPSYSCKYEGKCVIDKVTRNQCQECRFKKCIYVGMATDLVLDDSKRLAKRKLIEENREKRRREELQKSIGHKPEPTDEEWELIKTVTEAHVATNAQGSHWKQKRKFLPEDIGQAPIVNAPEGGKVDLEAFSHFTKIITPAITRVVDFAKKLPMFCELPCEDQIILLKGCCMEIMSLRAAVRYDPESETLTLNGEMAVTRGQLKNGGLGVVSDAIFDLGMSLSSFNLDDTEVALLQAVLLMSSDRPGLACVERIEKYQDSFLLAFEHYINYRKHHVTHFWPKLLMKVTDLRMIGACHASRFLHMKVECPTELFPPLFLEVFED
- assay remarks: In vitro TR-β activity (in-house protocol)
Friendly reminder: EC50 below 0.02 µM is true (1), at or above is false (0).

Sample answers from the record:
compound="CCOC(=O)N(CC(=O)O)c1cc(Cl)c(Oc2ccc(O)c(C(C)CC)c2)c(Cl)c1 (stereo not drawn) [Example 2]" class="false (0)"
compound="CCOC(=O)N(CC(=O)O)c1cc(Cl)c(Oc2ccc(O)c(Cc3ccccc3)c2)c(Cl)c1 [Example 3]" class="false (0)"
compound="O=C(O)CN(C(=O)Oc1ccc(O)cc1)c1cc(Cl)c(Oc2ccc(O)c(C(=O)c3cccc(Cl)c3)c2)c(Cl)c1 [Example 47]" class="true (1)"
compound="O=C(O)CN(C(=O)Oc1ccc(O)cc1)c1cc(Cl)c(Oc2ccc(O)c(C(=O)c3ccc(F)cc3)c2)c(Cl)c1 [Example 55]" class="false (0)"

Here's the next entry for you.
Request: Quick check: EC50 of O=C(O)CN(C(=O)Oc1ccc(O)cc1)c1cc(Cl)c(Oc2ccc(O)c(-c3ccccc3)c2)c(Cl)c1 [Example 49] under 0.02 µM?
Result: true (1)
